- TESTED SYSTEM: ACA-6501 aPL antibody
- PROTOCOL: competitive ELISA I50; antibody not given, ACA-6501 serum on CL/β2-GPI assumed (Ex. 4B)
Square brackets hold non-standard residues; d marks the D form. Ends that are not written are not given here. Aib = CC(C)(N)C(=O)O
List of IC50 values.
OBSERVATION TYPE: IC50 (µg/mL)

BINDER	OBSERVATION TYPE	OBSERVED RESULT
CIGVLGKLC [3G3 branched aliphatic 1: …]	IC50	60
CLGVLGKPC [3G3 conformational scan 17 (Pro scan): …]	IC50	550
CLGVLG[dL][dL]C (not fully specified (bridges); cysteine pairing not given here) [3G3 D amino acids 21: CLGVLG-dL-dL-C]	IC50	140
C[Aib]GVLGKLC (not fully specified (bridges); printed as C-aiB-GVLGKLC; cysteine pairing not given here) [3G3 conformational scan 25 (alpha Me AA): C-aiB-GVLGKLC]	IC50	370
